Param label: returns class 1 when flash point < 70 °C, returns class 0 otherwise, including exact equality.

>>> assigned_label("CCCOCCC")
"class 1"
>>> assigned_label("Nc1ccccc1Cl")
"class 0"
>>> assigned_label("COc1ccc(O)cc1")
"class 0"
>>> assigned_label("CCCCOCC1CO1 (stereo unspecified)")
"class 1"
>>> assigned_label("Cc1ccc(C(C)(C)C)cc1")
"class 1"
>>> assigned_label("C=CC(=O)OCCCCCCCCCC [decyl prop-2-enoate]")
"class 0"
>>> assigned_label("CCCCOC(=O)c1ccc(O)cc1 [butyl 4-hydroxybenzoate]")
"class 0"
>>> assigned_label("ClC(Cl)c1ccccc1")
"class 0"
>>> assigned_label("Cc1cccc2cccnc12")
"class 0"
>>> assigned_label("CCC(O)OCCCOC (stereo unspecified)")
"class 0"
>>> assigned_label("CN(C)N [1,1-dimethylhydrazine]")
"class 1"
